target: UniProt:P20393; experiment: modulators of Rev-erb alpha DNA binding, dose response, biochemical, FITC-DNA, fluorescence polarization (AID 1259321)
Activity calls are given as the source filed them.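 How the source made its calls: active means half-maximal concentration for changing protein binding to DNA, from the fitted dose curve, below 10 micromolar; inactive means the rest.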
# output must be one of active, inactive

Solved cases (10 shown):
O=c1ccc2c(-c3ccccc3)c3ccc(O)cc3oc-2c1: inactive
COc1cc(C(=O)NCc2ccc(-c3nc4ccccc4s3)cc2)cc(OC)c1OC: inactive
O=C(NCc1ccccc1)C(c1cccc2ccccc12)n1c(=O)c(-c2ccccc2)nc2ccccc21 (stereo unspecified): active
COc1ccc(OC)c(Nc2nc(-c3ccccc3O)nc3ccccc23)c1: active
CCn1cc(C2N3CC4(C)CN2CC(C)(C3)C4=O)c2ccccc21 (stereo unspecified): active
CCOC(=O)N1CCN(c2ncnc3c2oc2nc(C(C)C)c4c(c23)CCC4)CC1: active
C=CCOc1ccc(/C(O)=C2\C(=O)C(=O)N(CCN(C)C)C2c2cccs2)cc1 (stereo unspecified): active
CCc1cc2cc3c(cc2nc1SCC(=O)Nc1c[nH]c(=O)[nH]c1=O)OCO3: active
Cn1c(N)c(C(=O)CSc2nn(-c3ccc(F)cc3)c(=S)s2)c(=O)n(C)c1=O: inactive
COC1C(CO)OC(n2c3c(Cl)cccc3c3c4c(c5c6cccc(Cl)c6[nH]c5c32)C(=O)NC4=O)C(O)C1O (stereo unspecified): inactive

QUERY: Outcome? CSc1nnc2c3cc(F)ccc3n(Cc3ccccc3)c2n1
RESULT: active

QUERY: Outcome? COc1ccc(CN(Cc2cc3cc(OC)c(OC)cc3[nH]c2=O)C(=O)NC2CCCCC2)cc1
RESULT: active

QUERY: Outcome? COc1cc2cc(C#N)c(SCC(=O)Nc3cc(C)on3)nc2cc1OC
RESULT: inactive

QUERY: Outcome? CCOc1ccc(OCC)c(NC(=O)c2[nH]c(C)c(C(C)=O)c2C)c1
RESULT: active

QUERY: Outcome? CN1C(=O)C(=Cc2ccc(N3CCCCCC3)o2)C(=O)N(C)C1=S
RESULT: inactive

QUERY: Outcome? CCOc1ccccc1CNC(=O)C1CCN(c2nnc(C)c3c(C)n(-c4ccc(C)cc4)nc23)CC1
RESULT: inactive

* * *

target: Nuclear receptor subfamily 1 group D member 1 (Homo sapiens) (UniProt P20393); experiment: modulators of Rev-erb alpha DNA binding, dose response, biochemical, FITC-DNA, fluorescence polarization (AID 1259321)
Sequence (P20393 whole entry, looked up): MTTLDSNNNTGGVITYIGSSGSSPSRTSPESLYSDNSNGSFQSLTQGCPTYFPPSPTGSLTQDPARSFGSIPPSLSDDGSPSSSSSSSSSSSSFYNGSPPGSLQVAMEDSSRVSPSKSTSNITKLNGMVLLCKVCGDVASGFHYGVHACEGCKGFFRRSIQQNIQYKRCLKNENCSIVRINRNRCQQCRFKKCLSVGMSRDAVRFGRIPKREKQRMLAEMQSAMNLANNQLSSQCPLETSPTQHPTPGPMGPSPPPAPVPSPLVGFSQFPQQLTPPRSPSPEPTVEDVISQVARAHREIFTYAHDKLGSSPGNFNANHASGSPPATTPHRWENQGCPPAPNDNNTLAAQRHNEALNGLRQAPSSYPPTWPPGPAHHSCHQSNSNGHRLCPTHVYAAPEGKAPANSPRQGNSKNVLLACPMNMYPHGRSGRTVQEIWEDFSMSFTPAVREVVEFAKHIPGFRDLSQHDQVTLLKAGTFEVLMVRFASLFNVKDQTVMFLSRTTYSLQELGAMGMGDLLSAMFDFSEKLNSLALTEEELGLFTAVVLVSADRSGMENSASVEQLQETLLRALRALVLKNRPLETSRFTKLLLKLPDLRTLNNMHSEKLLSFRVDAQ
Activity calls are given as the source filed them.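 The calls were made as follows: active = half-maximal concentration for changing protein binding to DNA, from the fitted dose curve, below 10 micromolar; inactive = the rest.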
# output must be one of active, inactive

QUERY: Outcome? CN(C)C=Nc1nc2c(Br)ccc(Br)c2cc1C(=O)NCC(C)(C)C
RESULT: inactive

* * *

molecular target: Nuclear receptor subfamily 1 group D member 1 (Homo sapiens) (UniProt P20393); test: modulators of Rev-erb alpha DNA binding, dose response, biochemical, FITC-DNA, fluorescence polarization (AID 1259321)
Calls of active or inactive are those of the source.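 Rule for the calls: active = half-maximal concentration for changing protein binding to DNA, from the fitted dose curve, below 10 micromolar; inactive = the rest.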
RESULT_TYPE: IC50

Consider the following illustrative entries.
CSc1ccc(CCNC(=O)c2cc(-c3ccccc3)c(N3CCOCC3)s2)cc1: 2.74 µM
Fc1cnc(N2CCc3ccccc32)nc1N1CCc2ccccc21: 3.22 µM
Cc1cc(C)c2cc(C#N)c(SCC(=O)Nc3cc(C)on3)nc2c1: 7.32 µM
O=C(COC(=O)c1cccnc1SCC(=O)NCc1ccccc1)NCc1ccccc1: 4.11 µM
O=C(CSc1nnnn1-c1ccc2c(c1)OCCO2)c1cccc2c1OCCO2: 2.98 µM
Cc1ccc(C)c2nc(SCC(=O)N3CCCc4ccccc43)c(C#N)cc12: 6.12 µM
CCOc1ccc2nc(N=Nc3c(O)[nH]c(=S)[nH]c3=O)sc2c1: > 40 µM (inactive)
Cc1cccc2cc(C(c3nnnn3Cc3ccccc3)N3CCN(c4ccccc4)CC3)c(=O)[nH]c12 (stereo not drawn): 7.94 µM
COc1cc(SC)ccc1C(=O)Nc1ccc(Cl)cn1: 4.58 µM
COCCN(Cc1cc2cc(C)ccc2n2nnnc12)C(=S)Nc1ccccc1C: 2.73 µM

Report IC50 for every entry below.
1. CCc1nc(SCC(=O)Nc2ccc3c(c2)OCCO3)c2oc3ccccc3c2n1
2. CCOc1ccc(NC(=O)CCSc2ccc3ccccc3n2)cc1

RESULT:
1: 1.3 µM; 2: 5.15 µM
